EXPERIMENTAL_PROTOCOL: Tmax in Sprague-Dawley rat at 5 mg/kg,po by LC-MS/MS analysis
Type: ADME, organism-based
TEST_PARAMETERS: in vivo
MEASURED_PARAMETER: Tmax (h)
Report the figure in h without appending any unit label.

According to the records, this compound CCCCNC(=O)/C=C/c1ccc(COC(Cn2ccnc2)c2ccc(Cl)cc2Cl)cc1 (stereo unspecified) displays Tmax of 1

----------
Parameter MIC: see the listing below.
Tested on: Candida albicans
EXPERIMENTAL_PROTOCOL: Antifungal activity against Candida albicans CPCC400616 assessed as inhibition of fungal growth by CLSI protocol based microdilution method
Format: functional
Report the figure in µg/mL without appending any unit label.

COMPOUND	MEASUREMENT_UNITS	MIC
O=C(/C=C/c1ccc(COC(Cn2ccnc2)c2ccc(Cl)cc2Cl)cc1)Nc1ccc(C(F)(F)F)cc1 (centres undefined)	µg/mL	0.03
OC(Cn1cncn1)(Cn1cncn1)c1ccc(F)cc1F	µg/mL	4
O=C(/C=C/c1ccc(COC(Cn2ccnc2)c2ccc(Cl)cc2Cl)cc1)Nc1ccc(F)cc1 (centres undefined)	µg/mL	0.06

According to the records, this compound NC(=O)/C=C/c1ccc(COC(Cn2ccnc2)c2ccc(Cl)cc2Cl)cc1 (centres undefined) displays MIC of 2

According to the records, this compound CCCNC(=O)/C=C/c1ccc(COC(Cn2ccnc2)c2ccc(Cl)cc2Cl)cc1 (centres undefined) displays MIC of 0.06

According to the records, this compound CCNC(=O)/C=C/c1ccc(COC(Cn2ccnc2)c2ccc(Cl)cc2Cl)cc1 (centres undefined) displays MIC of 0.5

According to the records, this compound O=C(/C=C/c1ccc(COC(Cn2ccnc2)c2ccc(Cl)cc2Cl)cc1)NC1CC1 (centres undefined) displays MIC of 0.25

According to the records, this compound Cc1ccc(NC(=O)/C=C/c2ccc(COC(Cn3ccnc3)c3ccc(Cl)cc3Cl)cc2)cc1 (centres undefined) displays MIC of 0.03

According to the records, this compound Clc1ccc(COC(Cn2ccnc2)c2ccc(Cl)cc2Cl)c(Cl)c1 (centres undefined) displays MIC of 0.25
